# System: MIWI (PIWIL1) piRISC loaded with L1MC piRNA (30 nt);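 note: 1 nM active piRISC with 0.1 nM target library at 33 °C single turnover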
# experiment-summary: pre-steady-state target cleavage rate (min^-1); MIWI and MILI are mouse PIWI proteins and EfPiwi is from a freshwater sponge; tags in brackets are library labels; higher = faster piRNA-guided slicing of the target;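 note: 1 nM active piRISC with 0.1 nM target library at 33 °C single turnover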
# assay-conditions: guide: L1MC piRNA 5'p-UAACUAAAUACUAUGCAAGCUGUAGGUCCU; auxiliary factor: 500 nM mouse GTSF1
Over roughly 8,200 sequences, “pre-steady-state target cleavage rate” has its median near 0.024; the highest 2% begin near 1.3. Shown is part of a subset that was picked to be rich in the highest values.
recorded-metric: pre-steady-state target cleavage rate
// keep it numeric: no unit symbol after the value

MIWI (PIWIL1) piRISC loaded with L1MC piRNA (30 nt) pre-steady-state target cleavage rate of UCCUGCUACAGCCUGCAUAGUAUUUAGUUA is 0.976

MIWI (PIWIL1) piRISC loaded with L1MC piRNA (30 nt) pre-steady-state target cleavage rate of UGGACCUACAGCCUGCAUAGUAUUUAGUUA is 1.34

MIWI (PIWIL1) piRISC loaded with L1MC piRNA (30 nt) pre-steady-state target cleavage rate of UCCUGCUACAGCAUGCAUAGUAAUUAGUUA is 0.73

MIWI (PIWIL1) piRISC loaded with L1MC piRNA (30 nt) pre-steady-state target cleavage rate of UCCUGGAUGUGCAUGCAUUGUAUUUAGUUA is 0.00495

MIWI (PIWIL1) piRISC loaded with L1MC piRNA (30 nt) pre-steady-state target cleavage rate of UGGUCCUACAGCUUGCAUAGUAUUUAGUUA is 1.16

MIWI (PIWIL1) piRISC loaded with L1MC piRNA (30 nt) pre-steady-state target cleavage rate of UCGUCCUACAGCUUGCAUAGUAUUUAGUAA is 0.82

MIWI (PIWIL1) piRISC loaded with L1MC piRNA (30 nt) pre-steady-state target cleavage rate of UCCUGGAACAGCUUGCAUAGUAUUAUCUUA is 0.141

MIWI (PIWIL1) piRISC loaded with L1MC piRNA (30 nt) pre-steady-state target cleavage rate of UGGCACCUACAGCUUGCAUAGUAUUUAGUUA is 2.2

MIWI (PIWIL1) piRISC loaded with L1MC piRNA (30 nt) pre-steady-state target cleavage rate of UCCUGGAUCAGCUUGCAUAGUAUAUAGUAA is 0.458

MIWI (PIWIL1) piRISC loaded with L1MC piRNA (30 nt) pre-steady-state target cleavage rate of AGGUCCUACAGCUUGCAAAGUAUUUAGUUA is 1.35

MIWI (PIWIL1) piRISC loaded with L1MC piRNA (30 nt) pre-steady-state target cleavage rate of UGGACCUACUGCUUGGAUAGUAUUUAGUUA is 1.65

MIWI (PIWIL1) piRISC loaded with L1MC piRNA (30 nt) pre-steady-state target cleavage rate of UCCUACUACAGCUUGCAUAGUAUUUAGUUA is 0.886

MIWI (PIWIL1) piRISC loaded with L1MC piRNA (30 nt) pre-steady-state target cleavage rate of UCGACCUAACAGCUUGCAUAGUAUUUAGUUA is 1.15

MIWI (PIWIL1) piRISC loaded with L1MC piRNA (30 nt) pre-steady-state target cleavage rate of UGGACCUACACCUUGGAUAGUAUUUAGUUA is 0.815

MIWI (PIWIL1) piRISC loaded with L1MC piRNA (30 nt) pre-steady-state target cleavage rate of AGGACCCUACAGCUUGCAUAGUAUUUAGUUA is 1.24

MIWI (PIWIL1) piRISC loaded with L1MC piRNA (30 nt) pre-steady-state target cleavage rate of UGGACACUACAGCUUGCAUAGUAUUUAGUUA is 1.04

MIWI (PIWIL1) piRISC loaded with L1MC piRNA (30 nt) pre-steady-state target cleavage rate of AGGUCCUACAGCUUGCAUAGUAUUUAGUUA is 1.43

MIWI (PIWIL1) piRISC loaded with L1MC piRNA (30 nt) pre-steady-state target cleavage rate of UGCACCUACAGCUUGCAUAGUAUUUAGUAA is 1.17

MIWI (PIWIL1) piRISC loaded with L1MC piRNA (30 nt) pre-steady-state target cleavage rate of AGGACUCUACAGCUUGCAUAGUAUUUAGUUA is 1.28

MIWI (PIWIL1) piRISC loaded with L1MC piRNA (30 nt) pre-steady-state target cleavage rate of UCCACUCUACAGCUUGCAUAGUAUUUAGUUA is 0.884

MIWI (PIWIL1) piRISC loaded with L1MC piRNA (30 nt) pre-steady-state target cleavage rate of AGGACCGACAGCUUGCAUAGUAUUUAGUUA is 1.21

MIWI (PIWIL1) piRISC loaded with L1MC piRNA (30 nt) pre-steady-state target cleavage rate of UCCUCCUACAGCCUGCAUAGUAUUUAGUUA is 1.18

MIWI (PIWIL1) piRISC loaded with L1MC piRNA (30 nt) pre-steady-state target cleavage rate of UCCUGGUACAGCCUUGCAUAGUAUUUAGUUA is 0.594

MIWI (PIWIL1) piRISC loaded with L1MC piRNA (30 nt) pre-steady-state target cleavage rate of AGCACCUACAGCUUGCAUAGUAUUUAGUUA is 1.19

MIWI (PIWIL1) piRISC loaded with L1MC piRNA (30 nt) pre-steady-state target cleavage rate of UCGACGCUACAGCUUGCAUAGUAUUUAGUUA is 1.27

MIWI (PIWIL1) piRISC loaded with L1MC piRNA (30 nt) pre-steady-state target cleavage rate of UCGACGUACAGCUUGGAUAGUAUUUAGUUA is 1.24

MIWI (PIWIL1) piRISC loaded with L1MC piRNA (30 nt) pre-steady-state target cleavage rate of UCCACCUACACCUUGCAUAGAAUUUAGUUA is 0.337

MIWI (PIWIL1) piRISC loaded with L1MC piRNA (30 nt) pre-steady-state target cleavage rate of UCCUCCUACAGCUUGCAUAGUAAUUAGAUA is 0.297

MIWI (PIWIL1) piRISC loaded with L1MC piRNA (30 nt) pre-steady-state target cleavage rate of UCCUGGAACAGCUUGCAUUGUAAUUAGUUA is 0.375

MIWI (PIWIL1) piRISC loaded with L1MC piRNA (30 nt) pre-steady-state target cleavage rate of AGGACGUACAGCUUGGAUAGUAUUUAGUUA is 1.36

MIWI (PIWIL1) piRISC loaded with L1MC piRNA (30 nt) pre-steady-state target cleavage rate of UCCACCUACACCAUGCAUAGUAUUUAGUUA is 0.719

MIWI (PIWIL1) piRISC loaded with L1MC piRNA (30 nt) pre-steady-state target cleavage rate of UCGCACCUACAGCUUGCAUAGUAUUUAGUUA is 1.06

MIWI (PIWIL1) piRISC loaded with L1MC piRNA (30 nt) pre-steady-state target cleavage rate of UGGACCGACAGCUUGCAUAGUAUUUAGUUA is 1.45

MIWI (PIWIL1) piRISC loaded with L1MC piRNA (30 nt) pre-steady-state target cleavage rate of UCGUCCUACAGCUUGCAUAGUAUUUAGAAA is 0.469

MIWI (PIWIL1) piRISC loaded with L1MC piRNA (30 nt) pre-steady-state target cleavage rate of UCGACCUACAGCCUUGCAUAGUAUUUAGUUA is 1.28

MIWI (PIWIL1) piRISC loaded with L1MC piRNA (30 nt) pre-steady-state target cleavage rate of UCCACGUACAGCUUGGAUAGUAUUUAGUUA is 1.14

MIWI (PIWIL1) piRISC loaded with L1MC piRNA (30 nt) pre-steady-state target cleavage rate of UGGACCUUCAGCUUGCAUAGUAUUUAGUAA is 1.07

MIWI (PIWIL1) piRISC loaded with L1MC piRNA (30 nt) pre-steady-state target cleavage rate of UCCACCCUACAGCUUGCAUAGUAUUUAGUUA is 0.831

MIWI (PIWIL1) piRISC loaded with L1MC piRNA (30 nt) pre-steady-state target cleavage rate of UCCUGGAACAGCUUGCAUAGUAAUUACAAA is 0.129

MIWI (PIWIL1) piRISC loaded with L1MC piRNA (30 nt) pre-steady-state target cleavage rate of AGGACCUACAGCCUGCAUAGUAUUUAGUUA is 1.51

MIWI (PIWIL1) piRISC loaded with L1MC piRNA (30 nt) pre-steady-state target cleavage rate of UCCUGGAUCAGCCUGCAUAGUAUUUAGUUA is 1.02

MIWI (PIWIL1) piRISC loaded with L1MC piRNA (30 nt) pre-steady-state target cleavage rate of UGGACGUACAGCUUGGAUAGUAUUUAGUUA is 1.4

MIWI (PIWIL1) piRISC loaded with L1MC piRNA (30 nt) pre-steady-state target cleavage rate of UCGACCUACUGCUUGGAUAGUAUUUAGUUA is 1.67
